# Tgt: T1, human PD-L1-Fc (R&D Systems) chimeric protein (human, UniProt Q9NZQ7 19-239)
# T1 construct: Bought reagent; also called rhPD-L1-Fc; huPD-L1; Fc part of the bought chimera not given, not described
# Protocol summary: SPR (Biacore T200), PD-L1-Fc amine-coupled to CM5, Affimer analyte
Measured attribute: koff (s⁻¹)

Here is how some binders turned out for koff.
{"columns": ["Binder", "Measured attribute", "Experimental value"],
 "data": [
  ["AVA04-269 XT11 (designed binder) MIPRGLSEAKPATPEIQEIVDKVKPQLEEKTNETYGKLEAVQYKTQVLAKEYGPEEWWSTNYYIKVRAGDNKYMHLKVFNGPGDYEQVLIHADRVLTGYQVDKNKDDELTGFGGGGSGGGGSGGGGSGGGGSGGGGSGGGGSMIPRGLSEAKPATPEIQEIVDKVKPQLEEKTNETYGKLEAVQYKTQVLANFFQRRWPGSTNYYIKVRAGDNKYMHLKVFNGPWKFRNTDRGADRVLTGYQVDKNKDDELTGFHHHHHH", "koff", 0.00354],
  ["AVA04-236 XT8 (designed binder) MIPRGLSEAKPATPEIQEIVDKVKPQLEEKTNETYGKLEAVQYKTQVLAKEHGPDSWWSTNYYIKVRAGDNKYMHLKVFNGPQEKNQWVEEADRVLTGYQVDKNKDDELTGFAEAAAKEAAAKEAAAKEAAAKEAAAKEAAAKMIPRGLSEAKPATPEIQEIVDKVKPQLEEKTNETYGKLEAVQYKTQVLANFFQRRWPGSTNYYIKVRAGDNKYMHLKVFNGPWKFRNTDRGADRVLTGYQVDKNKDDELTGFHHHHHH", "koff", 0.00695],
  ["AVA04-261 XT9 (designed binder) MIPRGLSEAKPATPEIQEIVDKVKPQLEEKTNETYGKLEAVQYKTQVLAHAYGPRDWDSTNYYIKVRAGDNKYMHLKVFNGPPADHVLEEAADRVLTGYQVDKNKDDELTGFGGGGSGGGGSGGGGSGGGGSGGGGSGGGGSMIPRGLSEAKPATPEIQEIVDKVKPQLEEKTNETYGKLEAVQYKTQVLANFFQRRWPGSTNYYIKVRAGDNKYMHLKVFNGPWKFRNTDRGADRVLTGYQVDKNKDDELTGFHHHHHH", "koff", 0.00707],
  ["AVA04-269 XT12 (designed binder) MIPRGLSEAKPATPEIQEIVDKVKPQLEEKTNETYGKLEAVQYKTQVLAKEYGPEEWWSTNYYIKVRAGDNKYMHLKVFNGPGDYEQVLIHADRVLTGYQVDKNKDDELTGFAEAAAKEAAAKEAAAKEAAAKEAAAKEAAAKMIPRGLSEAKPATPEIQEIVDKVKPQLEEKTNETYGKLEAVQYKTQVLANFFQRRWPGSTNYYIKVRAGDNKYMHLKVFNGPWKFRNTDRGADRVLTGYQVDKNKDDELTGFHHHHHH", "koff", 0.00431]
]}

1 = AVA04-269 (designed binder) MIPRGLSEAKPATPEIQEIVDKVKPQLEEKTNETYGKLEAVQYKTQVLAKEYGPEEWWSTNYYIKVRAGDNKYMHLKVFNGPGDYEQVLIHADRVLTGYQVDKNKDDELTGF
2 = AVA04-236 (designed binder) MIPRGLSEAKPATPEIQEIVDKVKPQLEEKTNETYGKLEAVQYKTQVLAKEHGPDSWWSTNYYIKVRAGDNKYMHLKVFNGPQEKNQWVEEADRVLTGYQVDKNKDDELTGF
**Query** Given 1 and given 2 , which shows the smaller recorded koff? Choose, then provide that item's label.
**Result** 1
(1: 0.00345 s⁻¹, 2: 0.00977 s⁻¹)
